This listing pairs compounds with measured speed of sound.
Conditions: 313.15 K; 40100 kPa; Liquid; Frequency=1.5 MHz; Single path-length method

Compound | Unit label | speed of sound
CCCCCC [hexane] | m/s | 1289.3
O [water] | m/s | 1597.1
CCCCCCCC [octane] | m/s | 1356.4
CCO [ethanol] | m/s | 1313.5
Cc1ccccc1 [toluene] | m/s | 1429.5
CO [methanol] | m/s | 1267.3
CCCO [propan-1-ol] | m/s | 1366.8
CCCCCCC [heptane] | m/s | 1326.3

###

Conditions: 283.15 K; 10100 kPa; Liquid; Frequency=1.5 MHz; Single path-length method
Numbers after ± are expanded uncertainties.
Experimental readout: speed of sound

Molecule | Measured value
CCCCCC [hexane] | 1218.6 ± 3 m/s
O [water] | 1463.8 ± 3 m/s
Cc1ccccc1 [toluene] | 1418.1 ± 3 m/s
CCO [ethanol] | 1255.7 ± 2.7 m/s
CCCO [propan-1-ol] | 1313.7 ± 2.8 m/s
CO [methanol] | 1209.3 ± 2.6 m/s
CCCCCCCC [octane] | 1296.9 ± 2.9 m/s
CCCCCCC [heptane] | 1263.8 ± 3 m/s

Hello, the source for this data is the NIST ThermoML archive (doi:10.1016/j.jct.2016.09.022), in case you need it.
